test system: NCI-H460 lung; experiment: NCI-60 one-dose screen, 48 h; conditions: 10 µM unless noted
Compounds without any hit were thinned out: in the full panel of roughly 83,000, 20% have a hit. The source made the active and inactive calls. Rule for the calls: active = growth percent below 10; inactive = the rest.
Parameter call: string, one of y for active, n for inactive

GET /call?item= `Cn1ccnc1C(=O)/C=C/c1ccc(CC(=O)Nc2ccc(S(F)(F)(F)(F)F)cc2)cc1` returns the recorded outcome of this test.
y

GET /call?item= `COc1cc2cc(NCc3ccc(Cl)cc3)nc(C)c2cc1OC` returns the recorded outcome of this test.
n

GET /call?item= CCCc1cc2cc(-n3nc(C)c4c3CC(C)(C)CC4=O)cc(NC3CCC(O)CC3)c2c(=O)[nH]1 (stereo not given) returns the recorded outcome of this test.
n

GET /call?item= N#CC1(C#N)C(c2cccs2)NC(c2cccs2)C1(C#N)C#N (stereo not given) returns the recorded outcome of this test.
n

GET /call?item= `COc1cnc2c(c1)C(=O)c1c-2n(CCCN2CCOCC2)c(=O)c2cc(Cl)ccc12` returns the recorded outcome of this test.
y

GET /call?item= `CN1C/C=C\CCOc2cccc(c2)-c2ccnc(n2)Nc2cccc(c2)C1` returns the recorded outcome of this test.
y

GET /call?item= `CCN1CCN(c2nc(C)cc(N(CCNc3ccnc4cc(Cl)ccc34)Cc3ccc4c(c3)OCO4)n2)CC1` returns the recorded outcome of this test.
n

GET /call?item= CC(N)C(Cc1ccccc1)c1ccc(Cl)cc1 (stereo not given) returns the recorded outcome of this test.
n

GET /call?item= `Cc1cc(C)n(CC(=O)Nc2ccc(-c3nc4ccccc4s3)cc2)n1` returns the recorded outcome of this test.
n

GET /call?item= `CNC(=O)CN1CCC(Oc2cc3c(Nc4cccc(Cl)c4F)ncnc3cc2OC)CC1` returns the recorded outcome of this test.
n

GET /call?item= `C[C@@H](Nc1cc(F)cc(F)c1)c1cc(C(=O)N(C)C)cc2c(=O)cc(N3CCOCC3)oc12` returns the recorded outcome of this test.
n

GET /call?item= `CCNC(=O)Nc1nc2ccc(Oc3ccnc(C(=O)NC)c3)cc2s1` returns the recorded outcome of this test.
n

GET /call?item= `CCN(CCO)CCCOc1ccc2c(Nc3cc(CC(=O)Nc4cccc(F)c4)[nH]n3)ncnc2c1` returns the recorded outcome of this test.
n

GET /call?item= `C=CC[n+]1c(/C=C/C=C2\N(C)c3ccccc3C2(C)C)sc2ccc(OC)cc21` returns the recorded outcome of this test.
y

GET /call?item= `COCCN1CCN(Cc2ccc(-c3n[nH]c4c3C(=O)c3c(NC(=O)NN5CCOCC5)cccc3-4)cc2)CC1` returns the recorded outcome of this test.
y

GET /call?item= `N#Cc1c(NC(=O)c2ccco2)[n+]([O-])c2cc(F)c(F)cc2[n+]1[O-]` returns the recorded outcome of this test.
n

GET /call?item= `Nc1c2c(c(O)c3c1=C(CO)C=N3)=NCCS2` returns the recorded outcome of this test.
y

GET /call?item= `Cc1cc2c3c(cccc3c1)C(=O)c1ccccc1-2` returns the recorded outcome of this test.
n

GET /call?item= `C=CC(=O)Nc1cccc(Nc2nc(Nc3ccc(N4CCN(C(C)=O)CC4)cc3OC)ncc2C(F)(F)F)c1` returns the recorded outcome of this test.
y

GET /call?item= `O=C(Cc1ccc(-c2ccc(OCCN3CCOCC3)cc2)cn1)NCc1ccccc1` returns the recorded outcome of this test.
y
